The reported measurements were obtained from patent US20230312578A1.

# protocolNotes: Human tumor cell line growth assay (SRB)
# Assay type: cell-based
# cond: human, HCC-2998 cells (colon), HCC-2998, 48 h, read-out: LC50
assayEndpoint: CC50 at 48 h (µM)
Write the answer as a number in µM, unit excluded.

Here's what some known entries look like.
[[record]]
compound = "Cc1cc2nc3c4ccccc4n(CCN(C)C)c3nc2cc1C [B220, reference compound]"
assayendpoint = "CC50 at 48 h"
numericvalue = 15.7

[[record]]
compound = "Cc1cc2nc3c4cc([N+](=O)[O-])ccc4n(CCN(C)C)c3nc2cc1C"
assayendpoint = "CC50 at 48 h"
numericvalue = 6.53

[[record]]
compound = "Cc1cc2nc3c4cc(N)ccc4n(CCN(C)C)c3nc2cc1C"
assayendpoint = "CC50 at 48 h"
numericvalue = 21.9


As a next step, examine the compound that follows.
Reported CC50 at 48 h, compound `COc1ccc2c(c1)c1nc3cc(C)c(C)cc3nc1n2CCN(C)C` : ____
6.32

----------
GI50, OVCAR-4, per-entry values.
# number only, unit µM dropped from output

// below: answered molecules
[[record]]
molecule = "Cc1cc2nc3c4ccccc4n(CCN(C)C)c3nc2cc1C [B220, reference compound]"
assayendpoint = "GI50"
numericvalue = 2.55

[[record]]
molecule = "Cc1cc2nc3c4cc(O)ccc4n(CCN(C)C)c3nc2cc1C"
assayendpoint = "GI50"
numericvalue = 0.882


Request: GI50, test system OVCAR-4, entry `COc1ccc2c(c1)c1nc3cc(C)c(C)cc3nc1n2CCN(C)C`
1.02

Notebook entry, OVCAR-4 assay: GI50 of `Cc1cc2nc3c4cc([N+](=O)[O-])ccc4n(CCN(C)C)c3nc2cc1C` = ?
0.452

Identify the measured GI50 of `Cc1cc2nc3c4cc(N)ccc4n(CCN(C)C)c3nc2cc1C` for OVCAR-4.
1.7

----------
# protocolNotes: Human tumor cell line growth assay (SRB)
# Type: cell-based
# cond: human, LOX IMVI cells (melanoma), read-out: LC50
assayEndpoint: CC50 at 48 h (µM)
Give a bare numeral; the unit µM is implied.

Example cases with answers are listed next.
[[record]]
compound = "Cc1cc2nc3c4cc(N)ccc4n(CCN(C)C)c3nc2cc1C [JBD-136]"
assayendpoint = "CC50 at 48 h"
numericvalue = 21.8

[[record]]
compound = "COc1ccc2c(c1)c1nc3cc(C)c(C)cc3nc1n2CCN(C)C [JBA-094]"
assayendpoint = "CC50 at 48 h"
numericvalue = 6.07


Pending compound:
Entry Cc1cc2nc3c4ccccc4n(CCN(C)C)c3nc2cc1C [B220, reference compound] : reported CC50 at 48 h = ?
18.9

----------
Entries and their LC50 (50% lethal concentration) at 48 h
# protocolNotes: Human tumor cell line growth assay (SRB)
# Type: cell-based
# cond: human, SF-268 cells (CNS), SF-268, 48 h
Answer format: numeric, µM implied, no suffix.

Worked cases, answers included:
[[record]]
compound = "Cc1cc2nc3c4ccccc4n(CCN(C)C)c3nc2cc1C [B220, reference compound]"
assayendpoint = "LC50 (50% lethal concentration) at 48 h"
unitssymbol = "µM"
numericvalue = 28

[[record]]
compound = "Cc1cc2nc3c4cc(N)ccc4n(CCN(C)C)c3nc2cc1C"
assayendpoint = "LC50 (50% lethal concentration) at 48 h"
unitssymbol = "µM"
numericvalue = 42.7


Query (compound): `COc1ccc2c(c1)c1nc3cc(C)c(C)cc3nc1n2CCN(C)C` ; field requested: LC50 (50% lethal concentration) at 48 h
8.23

----------
# protocolNotes: Human tumor cell line growth assay (SRB)
# Format: cell-based
# cond: human, SF-539 cells (CNS), SF-539, 48 h, read-out: LC50
Measured CC50 at 48 h, listed per entry for reference.
I only need the number, in µM, no unit after it.

Before answering, review these 3 worked examples.
[[record]]
molecule = "Cc1cc2nc3c4ccccc4n(CCN(C)C)c3nc2cc1C [B220, reference compound]"
numericvalue = 15

[[record]]
molecule = "Cc1cc2nc3c4cc([N+](=O)[O-])ccc4n(CCN(C)C)c3nc2cc1C [JBA-185]"
numericvalue = 18.1

[[record]]
molecule = "Cc1cc2nc3c4cc(N)ccc4n(CCN(C)C)c3nc2cc1C [JBD-136]"
numericvalue = 19.5


Reported CC50 at 48 h for COc1ccc2c(c1)c1nc3cc(C)c(C)cc3nc1n2CCN(C)C [JBA-094] : what is it?
5.2

----------
A set of molecules tested on SK-MEL-5, with measured GI50:
Respond with the bare value in nM.

Examples from the recorded data:
[[record]]
molecule = "Cc1cc2nc3c4cc(N)ccc4n(CCN(C)C)c3nc2cc1C"
numericvalue = 1690

[[record]]
molecule = "Cc1cc2nc3c4cc([N+](=O)[O-])ccc4n(CCN(C)C)c3nc2cc1C"
numericvalue = 1040

[[record]]
molecule = "COc1ccc2c(c1)c1nc3cc(C)c(C)cc3nc1n2CCN(C)C"
numericvalue = 1660

[[record]]
molecule = "Cc1cc2nc3c4cc(O)ccc4n(CCN(C)C)c3nc2cc1C"
numericvalue = 1450


Moving on to the next molecule.
Enter reported GI50 observed with SK-MEL-5 for Cc1cc2nc3c4ccccc4n(CCN(C)C)c3nc2cc1C [B220, reference compound]
1700

----------
In this section, each of the molecules is paired with its reported LC50 (concentration killing 50% of cells) at 48 h.
# protocolNotes: Human tumor cell line growth assay (SRB)
# Assay type: cell-based
# cond: human, HCT-15 cells (colon), HCT-15, 48 h

Known LC50 (concentration killing 50% of cells) at 48 h results, listed for orientation:
[[record]]
molecule = "Cc1cc2nc3c4cc([N+](=O)[O-])ccc4n(CCN(C)C)c3nc2cc1C"
result = "> 100 µM"

[[record]]
molecule = "COc1ccc2c(c1)c1nc3cc(C)c(C)cc3nc1n2CCN(C)C"
result = "5.57 µM"

[[record]]
molecule = "Cc1cc2nc3c4cc(O)ccc4n(CCN(C)C)c3nc2cc1C"
result = "> 100 µM"

[[record]]
molecule = "Cc1cc2nc3c4cc(N)ccc4n(CCN(C)C)c3nc2cc1C"
result = "> 100 µM"


Field request: LC50 (concentration killing 50% of cells) at 48 h | item: Cc1cc2nc3c4ccccc4n(CCN(C)C)c3nc2cc1C [B220, reference compound]
> 100 µM

----------
# protocolNotes: Human tumor cell line growth assay (SRB)
# Type: cell-based
# cond: human, COLO 205 cells (colon), COLO 205, 48 h, read-out: LC50
assayEndpoint: CC50 at 48 h

If you can, please state the reported CC50 at 48 h value of Cc1cc2nc3c4ccccc4n(CCN(C)C)c3nc2cc1C [B220, reference compound] .
41 µM

Item `Cc1cc2nc3c4cc(N)ccc4n(CCN(C)C)c3nc2cc1C` has what recorded CC50 at 48 h?
83.6 µM

Reported CC50 at 48 h for `Cc1cc2nc3c4cc(O)ccc4n(CCN(C)C)c3nc2cc1C` : what is it?
> 100 µM

I would be grateful if you could share the reported CC50 at 48 h for `Cc1cc2nc3c4cc([N+](=O)[O-])ccc4n(CCN(C)C)c3nc2cc1C` .
> 100 µM

----------
Known LC50 (concentration killing 50% of cells) at 48 h of a selection of compounds
# protocolNotes: Human tumor cell line growth assay (SRB)
# Format: cell-based
# cond: human, SNB-75 cells (CNS), SNB-75, 48 h

Some compounds with known LC50 (concentration killing 50% of cells) at 48 h results, for comparison:
[[record]]
compound = "COc1ccc2c(c1)c1nc3cc(C)c(C)cc3nc1n2CCN(C)C [JBA-094]"
result = "23.8 µM"

[[record]]
compound = "Cc1cc2nc3c4cc(N)ccc4n(CCN(C)C)c3nc2cc1C [JBD-136]"
result = "24.8 µM"


I would be grateful if you could share the reported LC50 (concentration killing 50% of cells) at 48 h for Cc1cc2nc3c4cc(O)ccc4n(CCN(C)C)c3nc2cc1C [JBD-139] .
> 100 µM

# LC50 (concentration killing 50% of cells) at 48 h lookup, item Cc1cc2nc3c4ccccc4n(CCN(C)C)c3nc2cc1C [B220, reference compound]
80.2 µM

Entry under review: Cc1cc2nc3c4cc([N+](=O)[O-])ccc4n(CCN(C)C)c3nc2cc1C [JBA-185] . Reported LC50 (concentration killing 50% of cells) at 48 h?
5.45 µM

----------
Listed here are molecules together with their documented CC50 at 48 h.
# protocolNotes: Human tumor cell line growth assay (SRB)
# Type: cell-based
# cond: human, HCT-116 cells (colon), HCT-116, 48 h, read-out: LC50
Expressed in µM, but write only the number.

Consider the following illustrative entries.
[[record]]
molecule = "Cc1cc2nc3c4cc(N)ccc4n(CCN(C)C)c3nc2cc1C"
unitssymbol = "µM"
numericvalue = 51.4

[[record]]
molecule = "Cc1cc2nc3c4ccccc4n(CCN(C)C)c3nc2cc1C [B220, reference compound]"
unitssymbol = "µM"
numericvalue = 44.5

[[record]]
molecule = "COc1ccc2c(c1)c1nc3cc(C)c(C)cc3nc1n2CCN(C)C"
unitssymbol = "µM"
numericvalue = 6.59


For the next question, use this molecule.
# query: CC50 at 48 h of entry `Cc1cc2nc3c4cc([N+](=O)[O-])ccc4n(CCN(C)C)c3nc2cc1C`
94.2
